B1: Protein S100-G, residues 1 to 79; numbered along this chain, P02633 (parent)
chain: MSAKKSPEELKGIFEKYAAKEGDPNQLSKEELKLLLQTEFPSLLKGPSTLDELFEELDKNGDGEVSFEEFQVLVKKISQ

# Variants of: B1
# method_summary: abundance fitness (aPCA) (normalised: wild type 0, dead -1); higher = more abundant; growth selection in yeast, the domain comes from the species named
# setup_conditions: Bos taurus

| primary_sequence | abundance fitness |
| --- | --- |
| MSAKKSPEELKGIFEKVAAKEGDPNQLSKEELKLLLQTEFPSLLKGPSTLDELFEELDKNGDGEVSFEEFQVLVKKISQ | -0.345 |
| MSAKKSPEELKGIFEKYAAKEGDPNQLSKEELKLLLQTEFPSLLKGPSTLDELFEELDKNGDGEVSQEEFQVLVKKISQ | 0.04 |
| MSAKKSPEELKGIFEKGAAKEGDPNQLSKEELKLLLQTEFPSLLKGPSTLDELFEELDKNGDGEVSFEEFQVLVKKISQ | -0.521 |
| MSAKKSPEELKGIFEKYAAKEGDPNQLSKEELKLLLQTEFFSLLKGPSTLDELFEELDKNGDGEVSFEEFQVLVKKISQ | -0.019 |
| MSAKKSPEELKGIFEKYAAKEGDPNQLSKEELKLLLQTEFPSLLKGPSTLDELFEELDKNGDGEVSFNEFQVLVKKISQ | -0.047 |
| MSAKKSPEELKGIFEKYAKKEGDPNQLSKEELKLLLQTEFPSLLKGPSTLDELFEELDKNGDGEVSFEEFQVLVKKISQ | 0.048 |
| MSAKKSPEELKGIFEKYAAKEGDPNQLSKEELKLLLQTENPSLLKGPSTLDELFEELDKNGDGEVSFEEFQVLVKKISQ | -0.084 |
| MSAKKSPEELKGIFEKYAAKEGDPNQLSKEELKLLLQTEFPSLLKGPSTLDEQFEELDKNGDGEVSFEEFQVLVKKISQ | 0.028 |
| MSAKKSPEELKGIFEKYAAKEGDPNQLSKEELKLLLQTEFPSLLKGPSTLDELFEELDKNGDGEVSFEEFQVLVKKISD | -0.191 |
| MSAKKSPEELKGIFEKYAAKEGDPNQLSKEELKLLLQTEFPSLLKEPSTLDELFEELDKNGDGEVSFEEFQVLVKKISQ | -0.025 |
| MSAKKSPEELKGIFEKYAAKEGDPNQLSKEELKLLLQTEFPSLLKGPHTLDELFEELDKNGDGEVSFEEFQVLVKKISQ | -0.023 |
